In this section we review reported shrunken log2 fold change values for a set of sequences.
System: Escherichia coli TOP10
measurementNotes: shrunken log2 fold change of peptide-encoding DNA abundance (4.5 h post-induction vs induction); higher = less antimicrobial activity (less host growth inhibition)
measurementContext: time post-induction: 4.5 h; library: site-saturation at positions 5, 18, 19, 20
Please give only the number in your answer, with no unit.

Solved entries:
sequencechain=RRIRHRPPRLPRPRPRPVYDPRP system="Escherichia coli TOP10" measuredmetric="shrunken log2 fold change" valuemeasured=-0.202
sequencechain=RRIRGRPPRLPRPRPRPFSSPRP system="Escherichia coli TOP10" measuredmetric="shrunken log2 fold change" valuemeasured=0.193

Task: Provide shrunken log2 fold change value for the following sequence: "RRIRHRPPRLPRPRPRPLDQPRP"
Output: -0.116

Task: Give shrunken log2 fold change for the following sequence: "RRIRIRPPRLPRPRPRPSMFPRP"
Output: -0.801

Task: State, in one line, measured shrunken log2 fold change of "RRIRDRPPRLPRPRPRPHKVPRP"
Output: -0.0568

Task: # return recorded shrunken log2 fold change for input "RRIRMRPPRLPRPRPRPCMQPRP"
Output: -0.143

Task: Using known records, supply shrunken log2 fold change for "RRIRLRPPRLPRPRPRPPCVPRP"
Output: -0.0544

Task: Fill in reported shrunken log2 fold change for this entry: "RRIRNRPPRLPRPRPRPCQWPRP"
Output: 0.0401

Task: // Input: "RRIRGRPPRLPRPRPRPYYNPRP" . Output its shrunken log2 fold change only.
Output: -0.48

* * *

Test system: Escherichia coli TOP10;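 also: peptides expressed intracellularly from a pBAD plasmid library in pooled LB shake-flask culture, induced with 0.3% L-arabinose, DNA abundance read by NGS, three biological replicates, DESeq2 with apeglm shrinkage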
measurementNotes: shrunken log2 fold change of peptide-encoding DNA abundance (4.5 h post-induction vs induction); higher = less antimicrobial activity (less host growth inhibition)
measurementContext: time post-induction: 4.5 h; library: site-saturation at positions 5, 18, 19, 20
Decide using shrunken log2 fold change: a value greater than or equal to 0.07 is yes, a smaller one is no.

Would you please look over these solved cases?
sequencechain=RRIRQRPPRLPRPRPRPSRTPRP grouplabel=no
sequencechain=RRIRKRPPRLPRPRPRPDLLPRP grouplabel=yes
sequencechain=RRIRMRPPRLPRPRPRPYPNPRP grouplabel=no
sequencechain=RRIRGRPPRLPRPRPRPYNNPRP grouplabel=no
sequencechain=RRIRTRPPRLPRPRPRPNVGPRP grouplabel=yes
sequencechain=RRIRPRPPRLPRPRPRPMHHPRP grouplabel=no
sequencechain=RRIRERPPRLPRPRPRPCMFPRP grouplabel=no
sequencechain=RRIRIRPPRLPRPRPRPQSCPRP grouplabel=no
sequencechain=RRIRKRPPRLPRPRPRPMAHPRP grouplabel=no
sequencechain=RRIRRRPPRLPRPRPRPPGYPRP grouplabel=yes

Task: Item "RRIRWRPPRLPRPRPRPSQYPRP" with shrunken log2 fold change of 0.07 or above?
Output: no

Task: Is shrunken log2 fold change at least 0.07? Consider "RRIRIRPPRLPRPRPRPEIDPRP"
Output: no

Task: Can "RRIRFRPPRLPRPRPRPVDMPRP" be said to have shrunken log2 fold change at or above 0.07?
Output: no

Task: For this sequence, is measured shrunken log2 fold change 0.07 or higher? "RRIRGRPPRLPRPRPRPEQLPRP"
Output: yes

Task: API: above_or_equal(metric=shrunken log2 fold change, cutoff=0.07) for item "RRIRQRPPRLPRPRPRPSGTPRP"
Output: yes
